- target desc: Cyp3A4 (Homo sapiens)
- Sequence (P08684 whole entry): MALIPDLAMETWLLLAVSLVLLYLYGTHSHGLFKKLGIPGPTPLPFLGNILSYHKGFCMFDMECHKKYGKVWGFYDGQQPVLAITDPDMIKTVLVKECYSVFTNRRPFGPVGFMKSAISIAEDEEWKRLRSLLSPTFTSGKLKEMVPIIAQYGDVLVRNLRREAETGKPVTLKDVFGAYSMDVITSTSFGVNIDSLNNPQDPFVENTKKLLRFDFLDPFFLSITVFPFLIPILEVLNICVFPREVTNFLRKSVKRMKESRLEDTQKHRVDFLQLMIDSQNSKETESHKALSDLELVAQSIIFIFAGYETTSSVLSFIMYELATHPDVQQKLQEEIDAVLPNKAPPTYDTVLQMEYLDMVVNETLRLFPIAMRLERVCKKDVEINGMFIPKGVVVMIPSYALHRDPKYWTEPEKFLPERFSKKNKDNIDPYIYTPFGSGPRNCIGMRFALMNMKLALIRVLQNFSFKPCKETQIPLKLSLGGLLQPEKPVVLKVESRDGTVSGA
- measurement notes: Cyp reversible inhibition assay (human liver microsomes)
- condition: Cyp 3A4 testosterone LCMS IC50, human liver microsomes; substrate testosterone
recorded endpoint: IC50

For orientation, consider the following solved cases.
molecule: CCC(C)n1ncn(-c2ccc(N3CCN(c4ccc(OC[C@@H]5CO[C@@](Cn6nccn6)(c6ccc(Cl)cc6Cl)O5)cc4)CC3)cc2)c1=O (stereo partly drawn) [Compound 15]
IC50: > 50 µM
//
molecule: CCC(C)n1ncn(-c2ccc(N3CCN(c4ccc(OC[C@@H]5CO[C@@](Cn6nccn6)(c6ccc(Cl)cc6Cl)O5)cc4F)CC3)cc2)c1=O (stereo partly drawn) [Compound 54]
IC50: > 50 µM
//
molecule: CCC(C)n1ncn(-c2ccc(N3CCN(c4ccc(OC[C@@H]5CO[C@@](Cn6nccn6)(c6ccccc6Cl)O5)cc4)CC3)cc2)c1=O (stereo partly drawn) [Compound 32]
IC50: > 50 µM
//
molecule: CCC(C)n1ncn(-c2ccc(N3CCN(c4ccc(OC[C@@H]5CO[C@@](Cn6nccn6)(c6ccccc6C#N)O5)cc4)CC3)cc2)c1=O (stereo partly drawn) [Compound 74]
IC50: > 50 µM
//
molecule: CCC(C)n1cnn(-c2ccc(N3CCN(c4ccc(OC[C@@H]5CO[C@@](Cn6cncn6)(c6ccc(F)cc6F)O5)cc4)CC3)cc2)c1=O (mixture of isomers) [Compound 1]
IC50: 4.5 µM

Attention now turns to another entry.
Tested system Cyp3A4 (Homo sapiens); IC50 recorded for CCC(C)n1ncn(-c2ccc(N3CCN(c4ccc(OC[C@@H]5CO[C@@](Cn6nccn6)(c6ccc(Cl)cc6Cl)O5)c(F)c4)CC3)cc2)c1=O (stereo partly drawn) [Compound 49] was > 50 µM
